tested-on: UniProt:P12493
reported-conditions: 1H-15N HSQC titration
recorded-endpoint: binding to myrMA (changes in NMR spectra upon titration)

[[record]]
compound = "CCCC(=O)OCC(COP(=O)(O)OC1C(O)C(OP(=O)(O)O)C(O)C(OP(=O)(O)O)C1O)OC(=O)CCC (stereo not drawn) [di-C4-PI(3,5)P2]"
result = "does not bind"

[[record]]
compound = "CCCC(=O)OC[C@H](COP(=O)(O)O[C@@H]1[C@H](O)[C@H](OP(=O)(O)O)[C@@H](O)[C@H](O)[C@H]1O)OC(=O)CCC"
result = "No detectable changes"

[[record]]
compound = "CCCC(=O)OC[C@H](COP(=O)([O-])OCC[N+](C)(C)C)OC(=O)CCC"
result = "does not bind"

[[record]]
compound = "CCCC(=O)OC[C@H](COP(=O)(O)OC1[C@H](O)[C@H](O)C(O)[C@H](O)[C@H]1O)OC(=O)CCC (stereo partly drawn)"
result = "No detectable changes"

[[record]]
compound = "CCCC(=O)OCC(COP(=O)(O)OC1C(O)C(O)C(OP(=O)(O)O)C(O)C1O)OC(=O)CCC (stereo not drawn)"
result = "No detectable changes"


Turning now to a further record.
Inquiry: Could you share which binding to myrMA (changes in NMR spectra upon titration) value was measured for CCCC(=O)OCC(COP(=O)(O)OC1C(O)C(O)C(O)C(OP(=O)(O)O)C1O)OC(=O)CCC (stereo not drawn) ?
Reply text: No detectable changes

###

Could you please report measured Kd for the items listed next?
tested-on: HIV-1 myrMA (Human immunodeficiency virus type 1 group M subtype B, UniProt P12493)
Assay type: binding
Design: mediated by the matrix (MA) domain of Gag, a 132-residue polypeptide containing an N-terminal myristyl group; made in house
reported-conditions: fit to 1:1 binding isotherms, read-out: dissociation constant (Kd)
Description: HIV-1 myrMA and myr(−)MA proteins were prepared as described (19, 37). […] NMR data [Bruker DRX (Billerica, Mass.); 800 MHz ^1H and DMX 600 MHz ^1H spectrometers equipped with cryoprobes] were obtained from a combination of 2D, 3D, and 4D NOESY data, for combinations of natural abundance; ^15N-, ^15N-, and ^13C-labeled protein samples (35° C.). […] Binding isotherms from ^1H-^15N NMR HSQC titration experiments were calculated with ORIGIN 7.0 software (Microcal Software, Northampton, Mass.).
Give bare numbers, in µM.

[[record]]
molecule = "CCCC(=O)OC[C@H](COP(=O)(O)O[C@@H]1[C@H](O)[C@H](O)[C@@H](OP(=O)(O)O)[C@H](OP(=O)(O)O)[C@H]1O)OC(=O)CCC [di-C4-PI(4,5)P2, di-butyryl-PI(4,5)P2]"
result_number = 240


Turning now to a further record.
Inquiry: Could you share which Kd value was measured for CCCCCCCC(=O)OC[C@H](COP(=O)(O)O[C@@H]1[C@H](O)[C@H](O)[C@@H](OP(=O)(O)O)[C@H](OP(=O)(O)O)[C@H]1O)OC(=O)CCCCCCC [di-C8-PI(4,5)P2, di-octyl-PI(4,5)P2] ?
Reply text: 83
